system: S. typhimurium S18; assay: Veterinary bacteria, MIC by two fold serial dilution in agar; settings: Salmonella enterica, TYPHIMURIUM, 18 h
property: MIC

Sample answers from the record:
Q: Param item = CC(=CC(=O)OCc1ccc(S(C)(=O)=O)cc1)CC1OCC(CC2OC2C(C)C(C)O)C(O)C1O (stereo not drawn) [Example 3, p-Methylsulphonylbenzyl monate A] ; retrieve measured MIC.
Result: > 80 µg/mL

Q: Param item = CC(=CC(=O)OCc1ccc([S+](C)[O-])cc1)CC1OCC(CC2OC2C(C)C(C)O)C(O)C1O (stereo not drawn) [Example 2, p- Methylsulphinylbenzyl monate A] ; retrieve measured MIC.
Result: > 80 µg/mL

***
Q: Param item = CC(=CC(=O)OCc1cccc(S(C)(=O)=O)c1)CC1OCC(CC2OC2C(C)C(C)O)C(O)C1O (stereo not drawn) [Example 7, m-Methylsulfonylbenzyl monate A] ; retrieve measured MIC.
Result: > 80 µg/mL

----------
Measured MIC of individual entries
test system: M. suipneumoniae MS16; assay: Anti-mycoplasmal activity, MIC in Friis broth agarose; format: cell-based; details: Mesomycoplasma hyopneumoniae, 144 h, Friis broth solidified with 0.9% agarose, 6 days incubation at 37°C, read-out: MIC

Sample answers from the record:
Q: Param item = CC(=CC(=O)OCc1ccc([S+](C)[O-])cc1)CC1OCC(CC2OC2C(C)C(C)O)C(O)C1O (stereo not drawn) [Example 2, p- Methylsulphinylbenzyl monate A] ; retrieve measured MIC.
Result: 0.1 µg/mL

Q: Param item = CC(=CC(=O)OC(C)c1ccc(S(C)(=O)=O)cc1)CC1OCC(CC2OC2C(C)C(C)O)C(O)C1O (stereo not drawn) [Example 9, 1-(p-Methylsulfonylphenyl)ethyl monate A] ; retrieve measured MIC.
Result: 0.5 µg/mL

Okay, next one:
Q: Param item = CC(=CC(=O)OCc1cccc(S(C)(=O)=O)c1)CC1OCC(CC2OC2C(C)C(C)O)C(O)C1O (stereo not drawn) [Example 7, m-Methylsulfonylbenzyl monate A] ; retrieve measured MIC.
Result: 0.5 µg/mL

----------
Measured MIC of individual entries
test system: M. suipneumoniae MS16; assay: Anti-mycoplasmal activity, MIC in Friis broth agarose; assay type: cell-based; details: Mesomycoplasma hyopneumoniae, 144 h, Friis broth solidified with 0.9% agarose, 6 days incubation at 37°C, read-out: MIC
All answers are understood in µg/mL, so give the number only.

Sample answers from the record:
Q: Param item = CC(=CC(=O)OCc1cccc([S+](C)[O-])c1)CC1OCC(CC2OC2C(C)C(C)O)C(O)C1O (stereo not drawn) [Example 6, m-Methylsulfinylbenzyl monate A] ; retrieve measured MIC.
Result: 5

Q: Param item = CSc1ccc(COC(=O)C=C(C)CC2OCC(CC3OC3C(C)C(C)O)C(O)C2O)cc1 (stereo not drawn) [Example 1, p-Methylthiobenzyl monate A] ; retrieve measured MIC.
Result: 0.25

Okay, next one:
Q: Param item = CC(=CC(=O)OCc1ccc(S(C)(=O)=O)cc1)CC1OCC(CC2OC2C(C)C(C)O)C(O)C1O (stereo not drawn) [Example 3, p-Methylsulphonylbenzyl monate A] ; retrieve measured MIC.
Result: 0.1

----------
Measured MIC of individual entries
tested on: Haemophilus influenzae Q1; assay: Human bacteria, MIC by serial dilution in nutrient agar; format: cell-based; conditions: nutrient agar with 5% chocolated horse blood, 18 hours at 37°C, read-out: MIC
All answers are understood in µg/mL, so give the number only.

Q: Observed MIC on Haemophilus influenzae Q1 for CSc1ccc(COC(=O)C=C(C)CC2OCC(CC3OC3C(C)C(C)O)C(O)C2O)cc1 (centres unmarked) [Example 1, p-Methylthiobenzyl monate A] , please.
Result: 0.25

Okay, next one:
Q: Observed MIC on Haemophilus influenzae Q1 for CC(=CC(=O)OCc1cccc([S+](C)[O-])c1)CC1OCC(CC2OC2C(C)C(C)O)C(O)C1O (centres unmarked) [Example 6, m-Methylsulfinylbenzyl monate A] , please.
Result: 2.5

----------
Measured MIC of individual entries
tested on: M. pneumoniae ATCC 15492; assay: Anti-mycoplasmal activity, MIC in Friis broth agarose; assay type: cell-based; conditions: Mycoplasmoides pneumoniae, ATCC15492, 144 h, Friis broth solidified with 0.9% agarose, 6 days incubation at 37°C, read-out: MIC
All answers are understood in µg/mL, so give the number only.

Q: Param item = CSc1ccc(COC(=O)C=C(C)CC2OCC(CC3OC3C(C)C(C)O)C(O)C2O)cc1 (stereo not drawn) [Example 1, p-Methylthiobenzyl monate A] ; retrieve measured MIC.
Result: 1

Q: Param item = CC(=CC(=O)OCc1ccc([S+](C)[O-])cc1)CC1OCC(CC2OC2C(C)C(C)O)C(O)C1O (stereo not drawn) [Example 2, p- Methylsulphinylbenzyl monate A] ; retrieve measured MIC.
Result: 1

***
Q: Param item = CC(=CC(=O)OCc1cccc([S+](C)[O-])c1)CC1OCC(CC2OC2C(C)C(C)O)C(O)C1O (stereo not drawn) [Example 6, m-Methylsulfinylbenzyl monate A] ; retrieve measured MIC.
Result: 5

Q: Param item = CC(=CC(=O)OC(C)c1ccc(S(C)(=O)=O)cc1)CC1OCC(CC2OC2C(C)C(C)O)C(O)C1O (stereo not drawn) [Example 9, 1-(p-Methylsulfonylphenyl)ethyl monate A] ; retrieve measured MIC.
Result: 0.5

Q: Param item = CC(=CC(=O)OCc1cccc(S(C)(=O)=O)c1)CC1OCC(CC2OC2C(C)C(C)O)C(O)C1O (stereo not drawn) [Example 7, m-Methylsulfonylbenzyl monate A] ; retrieve measured MIC.
Result: 2.5

Q: Param item = CC(=CC(=O)OCc1ccc(S(C)(=O)=O)cc1)CC1OCC(CC2OC2C(C)C(C)O)C(O)C1O (stereo not drawn) [Example 3, p-Methylsulphonylbenzyl monate A] ; retrieve measured MIC.
Result: 0.25

----------
tested on: Strep. uberis SPU1; experiment: Veterinary bacteria, MIC by two fold serial dilution in agar; conditions: Streptococcus uberis, SPU1, 18 h
hey, just use True if measured MIC is less than 0.2 µg/mL, otherwise False

Previously resolved entries follow.
Q: Below 0.2 µg/mL on MIC? Entry CC(=CC(=O)OCc1cccc([S+](C)[O-])c1)CC1OCC(CC2OC2C(C)C(C)O)C(O)C1O (stereo not drawn) [Example 6, m-Methylsulfinylbenzyl monate A]
Result: False

Q: Below 0.2 µg/mL on MIC? Entry CC(=CC(=O)OCc1ccc(S(C)(=O)=O)cc1)CC1OCC(CC2OC2C(C)C(C)O)C(O)C1O (stereo not drawn) [Example 3, p-Methylsulphonylbenzyl monate A]
Result: False

Q: Below 0.2 µg/mL on MIC? Entry CC(=CC(=O)OCc1ccc([S+](C)[O-])cc1)CC1OCC(CC2OC2C(C)C(C)O)C(O)C1O (stereo not drawn) [Example 2, p- Methylsulphinylbenzyl monate A]
Result: True

Q: Below 0.2 µg/mL on MIC? Entry CC(=CC(=O)OC(C)c1ccc(S(C)(=O)=O)cc1)CC1OCC(CC2OC2C(C)C(C)O)C(O)C1O (stereo not drawn) [Example 9, 1-(p-Methylsulfonylphenyl)ethyl monate A]
Result: False

***
Q: Below 0.2 µg/mL on MIC? Entry CSc1ccc(COC(=O)C=C(C)CC2OCC(CC3OC3C(C)C(C)O)C(O)C2O)cc1 (stereo not drawn) [Example 1, p-Methylthiobenzyl monate A]
Result: True

Q: Below 0.2 µg/mL on MIC? Entry CC(=CC(=O)OCc1cccc(S(C)(=O)=O)c1)CC1OCC(CC2OC2C(C)C(C)O)C(O)C1O (stereo not drawn) [Example 7, m-Methylsulfonylbenzyl monate A]
Result: False

----------
tested on: Strep. pneumoniae CN33; experiment: Human bacteria, MIC by serial dilution in nutrient agar; assay type: cell-based; conditions: Streptococcus pneumoniae, nutrient agar with 5% chocolated horse blood, 18 hours at 37°C, read-out: MIC
property: MIC (µg/mL)
All answers are understood in µg/mL, so give the number only.

Q: Param item = CC(=CC(=O)OCc1ccc([S+](C)[O-])cc1)CC1OCC(CC2OC2C(C)C(C)O)C(O)C1O (stereo not drawn) [Example 2, p- Methylsulphinylbenzyl monate A] ; retrieve measured MIC.
Result: 1

Q: Param item = CSc1ccc(COC(=O)C=C(C)CC2OCC(CC3OC3C(C)C(C)O)C(O)C2O)cc1 (stereo not drawn) [Example 1, p-Methylthiobenzyl monate A] ; retrieve measured MIC.
Result: 0.5

Okay, next one:
Q: Param item = CC(=CC(=O)OCc1ccc(S(C)(=O)=O)cc1)CC1OCC(CC2OC2C(C)C(C)O)C(O)C1O (stereo not drawn) [Example 3, p-Methylsulphonylbenzyl monate A] ; retrieve measured MIC.
Result: 0.5

----------
Measured MIC of individual entries
tested on: Strep. suis (group D) SPS11; assay: Veterinary bacteria, MIC by two fold serial dilution in agar; conditions: Streptococcus suis, 18 h
All answers are understood in µg/mL, so give the number only.

Q: Observed MIC on Strep. suis (group D) SPS11 for CC(=CC(=O)OC(C)c1ccc(S(C)(=O)=O)cc1)CC1OCC(CC2OC2C(C)C(C)O)C(O)C1O (stereo not drawn) [Example 9, 1-(p-Methylsulfonylphenyl)ethyl monate A] , please.
Result: 40

Q: Observed MIC on Strep. suis (group D) SPS11 for CSc1ccc(COC(=O)C=C(C)CC2OCC(CC3OC3C(C)C(C)O)C(O)C2O)cc1 (stereo not drawn) [Example 1, p-Methylthiobenzyl monate A] , please.
Result: 2.5

Q: Observed MIC on Strep. suis (group D) SPS11 for CC(=CC(=O)OCc1ccc([S+](C)[O-])cc1)CC1OCC(CC2OC2C(C)C(C)O)C(O)C1O (stereo not drawn) [Example 2, p- Methylsulphinylbenzyl monate A] , please.
Result: 2.5

Q: Observed MIC on Strep. suis (group D) SPS11 for CC(=CC(=O)OCc1ccc(S(C)(=O)=O)cc1)CC1OCC(CC2OC2C(C)C(C)O)C(O)C1O (stereo not drawn) [Example 3, p-Methylsulphonylbenzyl monate A] , please.
Result: 2.5

Okay, next one:
Q: Observed MIC on Strep. suis (group D) SPS11 for CC(=CC(=O)OCc1cccc(S(C)(=O)=O)c1)CC1OCC(CC2OC2C(C)C(C)O)C(O)C1O (stereo not drawn) [Example 7, m-Methylsulfonylbenzyl monate A] , please.
Result: 20

Data origin: patent EP0093484A2
